target.system: Adenosine receptor A3 (Homo sapiens, UniProt P0DMS8)
Sequence (P0DMS8 whole entry): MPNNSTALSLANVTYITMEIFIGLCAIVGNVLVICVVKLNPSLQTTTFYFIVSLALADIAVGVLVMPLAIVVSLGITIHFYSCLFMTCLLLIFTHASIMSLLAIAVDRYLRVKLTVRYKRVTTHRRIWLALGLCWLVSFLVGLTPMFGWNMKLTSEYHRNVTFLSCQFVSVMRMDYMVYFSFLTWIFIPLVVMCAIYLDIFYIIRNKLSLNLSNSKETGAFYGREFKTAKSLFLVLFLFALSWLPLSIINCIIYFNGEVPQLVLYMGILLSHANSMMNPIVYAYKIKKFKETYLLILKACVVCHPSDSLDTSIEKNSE
protocol.text: Binding affinity to human adenosine A3 receptor
test.context: read-out: Ki
pKi: −log10 of the molar value.

{"columns": ["structure.notation", "pKi"],
 "data": [
  ["CNC(=O)[C@H]1O[C@@H](n2cnc3c(N)nc(C#Cc4ccccc4)nc32)[C@H](O)[C@@H]1O", 8.14]
]}

====

target.system: Adenosine receptor A2a (Homo sapiens)
Sequence (P29274 whole entry): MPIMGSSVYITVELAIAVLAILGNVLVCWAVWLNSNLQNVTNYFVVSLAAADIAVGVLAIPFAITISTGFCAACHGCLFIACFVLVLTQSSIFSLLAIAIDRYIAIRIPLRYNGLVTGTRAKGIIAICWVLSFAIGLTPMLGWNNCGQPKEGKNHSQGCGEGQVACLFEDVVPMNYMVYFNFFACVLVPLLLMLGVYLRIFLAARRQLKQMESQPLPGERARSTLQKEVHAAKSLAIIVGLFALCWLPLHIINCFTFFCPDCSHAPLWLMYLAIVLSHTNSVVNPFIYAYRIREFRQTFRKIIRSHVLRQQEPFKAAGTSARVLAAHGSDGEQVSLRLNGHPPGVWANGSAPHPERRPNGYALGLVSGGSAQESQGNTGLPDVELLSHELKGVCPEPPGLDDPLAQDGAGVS

{"columns": ["structure.notation", "target.system", "endpoint.unit", "Ki"],
 "data": [
  ["CNC(=O)[C@H]1O[C@@H](n2cnc3c(N)nc(C#Cc4ccccc4)nc32)[C@H](O)[C@@H]1O", "Adenosine receptor A2a (Homo sapiens)", "nM", 1760]
]}

====

Entries and their Ratio Ki
Species: Homo sapiens
protocol.text: Selectivity ratio of Ki for human adenosine A2A receptor to Ki for human adenosine A3 receptor
result.type: Ratio Ki

{"columns": ["structure.notation", "result.type", "test.value"],
 "data": [
  ["CNC(=O)[C@H]1O[C@@H](n2cnc3c(NC)nc(C#Cc4ccc(C(C)=O)cc4)nc32)[C@H](O)[C@@H]1O", "Ratio Ki", 21300],
  ["CNC(=O)[C@H]1O[C@@H](n2cnc3c(NC)nc(C#Cc4ccccc4)nc32)[C@H](O)[C@@H]1O", "Ratio Ki", 115],
  ["CNC(=O)[C@H]1O[C@@H](n2cnc3c(NC)nc(C#Cc4ccc(F)cc4)nc32)[C@H](O)[C@@H]1O", "Ratio Ki", 29500],
  ["CNC(=O)[C@H]1O[C@@H](n2cnc3c(NC)nc(C#Cc4ccccn4)nc32)[C@H](O)[C@@H]1O", "Ratio Ki", 60800]
]}
